Value source: ChEMBL document CHEMBL4414666

# target.system: UniProtKB O15296
# Sequence (whole entry): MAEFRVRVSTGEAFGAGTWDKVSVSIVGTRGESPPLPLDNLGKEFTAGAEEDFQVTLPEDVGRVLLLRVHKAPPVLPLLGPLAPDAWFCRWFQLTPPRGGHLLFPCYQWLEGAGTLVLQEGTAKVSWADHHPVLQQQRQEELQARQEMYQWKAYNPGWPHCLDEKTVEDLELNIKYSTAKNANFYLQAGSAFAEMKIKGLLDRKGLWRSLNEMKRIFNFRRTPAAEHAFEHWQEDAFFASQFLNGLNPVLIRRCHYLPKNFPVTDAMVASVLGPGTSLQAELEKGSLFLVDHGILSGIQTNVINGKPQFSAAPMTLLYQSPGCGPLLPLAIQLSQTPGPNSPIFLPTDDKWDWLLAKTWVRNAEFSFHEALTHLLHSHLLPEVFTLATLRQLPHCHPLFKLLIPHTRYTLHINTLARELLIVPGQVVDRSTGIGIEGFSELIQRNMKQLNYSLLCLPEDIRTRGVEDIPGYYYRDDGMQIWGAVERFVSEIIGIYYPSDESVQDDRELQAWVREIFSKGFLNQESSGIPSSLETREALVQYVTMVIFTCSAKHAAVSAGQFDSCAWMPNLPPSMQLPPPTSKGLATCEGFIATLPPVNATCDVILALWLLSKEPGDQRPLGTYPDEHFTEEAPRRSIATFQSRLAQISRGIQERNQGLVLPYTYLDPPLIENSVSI
# experiment: Inhibition of human recombinant N-terminal His-tagged 15-LOX2 expressed in Escherichia coli assessed as residual activity at 42 uM using arachidonic acid as substrate preincubated for 5 mins followed by substrate addition measured after 20 mins in dark by ferric ion oxidation-xylenol orange assay relative to control
endpoint.label: Activity (%)

> print(dat)
                                    compound  value.observed
 1  CC(Cc1ccc(O)c(O)c1)C(C)Cc1ccc(O)c(O)c1 (stereo unspecified)            31.4
 2  CC(=O)O[C@@H]1CC[C@@]2(C)[C@@H](CC[C@]3(C)[C@@H]2C(=O)C=C2[C@@H]4[C@@H](C)[C@H](C)CC[C@]4(C)CC[C@]23C)[C@@]1(C)C(=O)O            81.7
 3  C[C@H]1[C@H](C)CC[C@]2(C)CC[C@]3(C)C(=CC[C@@H]4[C@@]5(C)CCC(=O)C(C)(C)[C@@H]5CC[C@]43C)[C@H]12             100
 4  CC(=O)O[C@@H]1CC[C@@]2(C)[C@@H](CC[C@]3(C)[C@@H]2CC=C2[C@@H]4[C@@H](C)[C@H](C)CC[C@]4(C)CC[C@]23C)[C@@]1(C)C(=O)O            24.9
 5  CC1(C)CC[C@]2(C(=O)O)CC[C@]3(C)C(=CC[C@@H]4[C@@]5(C)CC[C@H](O)[C@@](C)(CO)[C@@H]5CC[C@]43C)[C@@H]2C1            64.7
 6  CC(=O)O[C@@H]1CC[C@@]2(C)[C@@H](CC[C@]3(C)[C@@H]2CC=C2[C@@H]4CC(C)(C)CC[C@]4(C)CC[C@]23C)[C@@]1(C)C(=O)O             100
 7  C[C@H]1[C@H](C)CC[C@]2(C(=O)O)CC[C@]3(C)C(=CC[C@@H]4[C@@]5(C)CC[C@H](O)C(C)(C)[C@@H]5CC[C@]43C)[C@H]12            63.6
 8  CC1(C)[C@@H](O)CC[C@]2(C)[C@H]3C(=O)C=C4[C@@H]5C[C@@](C)(CO)CC[C@]5(C)CC[C@@]4(C)[C@]3(C)CC[C@@H]12             100
 9  C[C@H]1[C@H](C)CC[C@]2(C(=O)O)CC[C@]3(C)C(=CC[C@@H]4[C@@]5(C)C[C@@H](O)[C@H](O)[C@@](C)(CO)[C@@H]5CC[C@]43C)[C@H]12             100
10  CC1(C)CC[C@]2(C(=O)O)CC[C@]3(C)C(=CC[C@@H]4[C@@]5(C)C[C@@H](O)[C@H](O)C(C)(C)[C@@H]5CC[C@]43C)[C@@H]2C1             100
11  CC1(C)CC[C@]2(C)CC[C@]3(C)C(=CC[C@@H]4[C@@]5(C)CC[C@@H](O)[C@](C)(C(=O)O)[C@@H]5CC[C@]43C)[C@@H]2C1             100

###

# target.system: Prostaglandin G/H synthase 2 (Homo sapiens, UniProt P35354);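 further: recombinant enzyme produced in baculovirus-infected Sf21 cells, arachidonic acid substrate, PGE2 output quantified by LC-MS after 45 min, compounds preincubated 10 min beforehand, lower PGE2 means inhibition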
# Sequence (P35354 whole entry): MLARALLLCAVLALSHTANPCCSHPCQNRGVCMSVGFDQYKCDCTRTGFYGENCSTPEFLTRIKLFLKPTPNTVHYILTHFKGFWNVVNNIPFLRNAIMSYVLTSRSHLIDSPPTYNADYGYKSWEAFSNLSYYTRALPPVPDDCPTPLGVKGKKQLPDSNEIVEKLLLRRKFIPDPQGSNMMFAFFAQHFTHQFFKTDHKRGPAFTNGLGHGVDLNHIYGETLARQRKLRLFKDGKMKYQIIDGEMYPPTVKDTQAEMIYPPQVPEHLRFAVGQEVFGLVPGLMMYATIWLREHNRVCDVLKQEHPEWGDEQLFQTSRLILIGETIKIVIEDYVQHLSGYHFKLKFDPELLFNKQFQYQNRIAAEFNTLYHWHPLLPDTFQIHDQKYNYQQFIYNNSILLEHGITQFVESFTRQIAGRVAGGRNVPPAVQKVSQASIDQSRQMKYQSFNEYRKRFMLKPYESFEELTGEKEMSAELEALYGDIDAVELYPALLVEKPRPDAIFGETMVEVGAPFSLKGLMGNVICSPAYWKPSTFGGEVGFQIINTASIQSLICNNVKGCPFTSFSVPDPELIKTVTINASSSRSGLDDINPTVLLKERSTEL
# experiment: biochemical
# Type: cell-based, Sf21
# condition.label: read-out: IC50
# Description: Inhibition of human recombinant COX2 expressed in baculovirus infected sf21 cells assessed as decrease in PGE2 formation using arachidonic acid as substrate preincubated for 10 mins followed by substrate addition measured after 45 mins by LC-MS analysis
pIC50: −log10 of the molar value.
Recorded pIC50, one value per entry.
endpoint.label: pIC50

molecule	value.observed
C[C@H]1[C@H](C)CC[C@]2(C(=O)O)CC[C@]3(C)C(=CC[C@@H]4[C@@]5(C)C[C@@H](O)[C@H](O)[C@@](C)(CO)[C@@H]5CC[C@]43C)[C@H]12 [ASIATIC ACID]	< 4.40
CC1(C)CC[C@]2(C(=O)O)CC[C@]3(C)C(=CC[C@@H]4[C@@]5(C)C[C@H](O)[C@H](O)[C@@](C)(CO)[C@@H]5CC[C@]43C)[C@@H]2C1	< 4.40
C[C@H]1[C@H](C)CC[C@]2(C(=O)O)CC[C@]3(C)C(=CC[C@@H]4[C@@]5(C)C[C@@H](O)[C@H](O)C(C)(C)[C@@H]5CC[C@]43C)[C@H]12 [COROSOLIC ACID]	< 4.40
C[C@H]1[C@H](C)CC[C@]2(C(=O)O)CC[C@]3(C)C(=CC[C@@H]4[C@@]5(C)CC[C@H](O)C(C)(C)[C@@H]5CC[C@]43C)[C@H]12 [URSOLIC ACID]	< 4.40
CC1(C)CC[C@]2(C(=O)O)CC[C@]3(C)C(=CC[C@@H]4[C@@]5(C)C[C@@H](O)[C@H](O)[C@@](C)(CO)[C@@H]5CC[C@]43C)[C@@H]2C1 [ARJUNOLIC ACID]	< 4.40

###

# target.system: Polyunsaturated fatty acid 5-lipoxygenase (Homo sapiens)
# Sequence (P09917 whole entry): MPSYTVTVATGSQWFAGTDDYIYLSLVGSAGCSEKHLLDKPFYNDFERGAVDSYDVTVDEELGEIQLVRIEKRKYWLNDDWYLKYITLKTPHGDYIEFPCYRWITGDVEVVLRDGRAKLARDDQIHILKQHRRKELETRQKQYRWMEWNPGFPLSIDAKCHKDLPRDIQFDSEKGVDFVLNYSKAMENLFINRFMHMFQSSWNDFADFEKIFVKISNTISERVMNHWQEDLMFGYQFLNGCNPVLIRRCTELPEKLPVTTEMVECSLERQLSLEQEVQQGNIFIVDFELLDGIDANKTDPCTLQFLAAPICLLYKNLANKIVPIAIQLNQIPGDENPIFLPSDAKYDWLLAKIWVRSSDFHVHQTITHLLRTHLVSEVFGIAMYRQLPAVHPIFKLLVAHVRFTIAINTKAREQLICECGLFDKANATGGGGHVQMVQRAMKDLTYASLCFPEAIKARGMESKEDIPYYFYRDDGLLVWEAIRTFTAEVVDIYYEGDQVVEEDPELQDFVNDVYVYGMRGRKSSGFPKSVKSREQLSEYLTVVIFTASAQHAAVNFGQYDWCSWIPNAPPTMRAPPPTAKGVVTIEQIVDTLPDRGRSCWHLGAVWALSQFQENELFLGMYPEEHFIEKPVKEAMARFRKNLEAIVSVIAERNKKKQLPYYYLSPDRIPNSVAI
# experiment: Inhibition of human recombinant 5-LOX expressed in insect cells assessed as decrease in production of 5-HPETE and 5-HETE using arachidonic acid as substrate preincubated for 5 mins followed by substrate addition measured after 20 mins in dark by ferric ion oxidation-xylenol orange method
# condition.label: read-out: IC50
Each entry below carries its recorded IC50.

molecule	IC50
CC1(C)CC[C@]2(C)CC[C@]3(C)C(=CC(=O)[C@@H]4[C@@]5(C)CC[C@H](O)C(C)(C)[C@@H]5CC[C@]43C)[C@@H]2C1	> 40 µM
CC1(C)[C@@H](O)CC[C@]2(C)[C@H]3C(=O)C=C4[C@@H]5C[C@@](C)(C(=O)O)CC[C@]5(C)CC[C@@]4(C)[C@]3(C)CC[C@@H]12 [ENOXOLONE]	24.8 µM
C[C@H]1[C@H](C)CC[C@]2(C)CC[C@]3(C)C(=CC(=O)[C@@H]4[C@@]5(C)CC[C@@H](O)[C@](C)(C(=O)O)[C@@H]5CC[C@]43C)[C@H]12 [11-KETO BOSWELLIC ACID]	28.3 µM
C[C@H]1[C@H](C)CC[C@]2(C(=O)O)CC[C@]3(C)C(=CC[C@@H]4[C@@]5(C)C[C@@H](O)[C@H](O)C(C)(C)[C@@H]5CC[C@]43C)[C@H]12 [COROSOLIC ACID]	> 40 µM
CC(=O)O[C@@H]1CC[C@@]2(C)[C@@H](CC[C@]3(C)[C@@H]2CC=C2[C@@H]4CC(C)(C)CC[C@]4(C)CC[C@]23C)[C@@]1(C)C(=O)O	> 40 µM
C[C@H]1[C@H](C)CC[C@]2(C)CC[C@]3(C)C(=CC[C@@H]4[C@@]5(C)CC[C@H](O)C(C)(C)[C@@H]5CC[C@]43C)[C@H]12	> 40 µM

###

# target.system: Polyunsaturated fatty acid 5-lipoxygenase (Homo sapiens) (UniProt P09917)
# experiment: Inhibition of human recombinant 5-LOX expressed in insect cells assessed residual activity using arachidonic acid at 42 uM as substrate preincubated for 5 mins followed by substrate addition measured after 20 mins in dark by ferric ion oxidation-xylenol orange method relative to control
Each record here notes measured Activity.

compound	target.system	Activity, %
CC1(C)CC[C@]2(CO)CC[C@]3(C)C(=CC[C@@H]4[C@@]5(C)CC[C@H](O)C(C)(C)[C@@H]5CC[C@]43C)[C@@H]2C1 [ERYTHRODIOL]	Polyunsaturated fatty acid 5-lipoxygenase (Homo sapiens) (UniProt P09917)	60.7
CC(=O)O[C@@H]1CC[C@@]2(C)[C@@H](CC[C@]3(C)[C@@H]2C(=O)C=C2[C@@H]4[C@@H](C)[C@H](C)CC[C@]4(C)CC[C@]23C)[C@@]1(C)C(=O)O [AKBA]	Polyunsaturated fatty acid 5-lipoxygenase (Homo sapiens) (UniProt P09917)	41.2
CC1(C)[C@@H](O)CC[C@]2(C)[C@H]3C(=O)C=C4[C@@H]5C[C@@](C)(CO)CC[C@]5(C)CC[C@@]4(C)[C@]3(C)CC[C@@H]12	Polyunsaturated fatty acid 5-lipoxygenase (Homo sapiens) (UniProt P09917)	25.2
CC1(C)[C@@H](O)CC[C@]2(C)[C@H]3CC=C4[C@@H]5C[C@@](C)(CO)CC[C@]5(C)CC[C@@]4(C)[C@]3(C)CC[C@@H]12	Polyunsaturated fatty acid 5-lipoxygenase (Homo sapiens) (UniProt P09917)	34.8
CC1(C)CC[C@]2(C(=O)O)CC[C@]3(C)C(=CC[C@@H]4[C@@]5(C)C[C@@H](O)[C@H](O)[C@@](C)(CO)[C@@H]5CC[C@]43C)[C@@H]2C1 [ARJUNOLIC ACID]	Polyunsaturated fatty acid 5-lipoxygenase (Homo sapiens) (UniProt P09917)	47.7
